Please respond with reported SPOT peptide array binding signal intensity for every item in the list.
biological target: CaHse1; assay: SPOT peptide array binding signal intensity (averaged, normalized) (arbitrary units (background-subtracted, floor 0; scale differs between SH3 domains)); higher = stronger binding of the SH3 domain to the peptide

Query LYKRKPILLPDPKPL yields SPOT peptide array binding signal intensity of ≤ 0

Query LASNSPPVYPKRIRH yields SPOT peptide array binding signal intensity of ≤ 0

Query VPVAPPPPPASLGQS yields SPOT peptide array binding signal intensity of ≤ 0
